- method-notes: pH of peptide solutions in DMSO/D5W, with succinate, and with Hiltonol
- Type: physicochemical
Below: a set of entries, each annotated with reported pH of peptides in DMSO/D5W.
No unit in the answer, only the number.

1. H-SKLPYPVAKSGKRALARGPAPTEKTPHSGAQLG-OH [CS6719] :: 3.94
2. H-YLLPKTAVVLRCPALRVRKP-OH [CS7418] :: 3.98
3. H-LPVFIGNIAVNHAPVSLRPGLGLPPGAPPLVVP-OH [CS6730] :: 4.20
4. H-LLTDRNTSGTTFTLLGVSDYPELQVPLFLVFLA-OH [CS6783] :: 3.96
5. H-AESAQRQGPLGGGEQSANEF-OH [CS7417] :: 3.82

Attention now turns to another entry.
Problem: Identify pH of peptides in DMSO/D5W associated with the substance H-VEQGHVRVGPDVVTHPAFLV-OH [CS7427]
Result: 3.72
